Source listed as patent US20260242478A1.

Each record here notes measured Phage binding ELISA signal, Anti-PSMA Fab with PSMA antigen.
molecular target: T1, PSMA Fab (006 PSMA Fab); assay: phage ELISA; clonal phage on plate-captured PSMA Fab pre-incubated with PSMA antigen as competitor, anti-M13 HRP detection
T1 construct: also called Anti-PSMA Fab; anti-PSMA Fab
Please state the value as a number alone, without comment.

| binder | assay-value |
| --- | --- |
| LAIMCRPAWMCSGF (tested as crude phage supernatant) [Phage-2920] | 0.112 |
| VERACVPVWMCEGF (tested as crude phage supernatant) [Phage-2933] | 0.11 |
| IKPFCVPEWMCVAL (tested as crude phage supernatant) [Phage-2927] | 0.121 |
| TQALCVPSWMCDGF (tested as crude phage supernatant) [Phage-2930] | 0.0747 |
| VPKMCTPPWMCWGF (tested as crude phage supernatant) [Phage-2923] | 0.0934 |
| NIPHCVPAWMCIGF (tested as crude phage supernatant) [Phage-2929] | 0.109 |

query: Read off the recorded Phage binding ELISA signal, Anti-PSMA Fab with PSMA antigen for TPIFCVPAWMCSGF (tested as crude phage supernatant) [Phage-2925]
result: 0.0946

query: Read off the recorded Phage binding ELISA signal, Anti-PSMA Fab with PSMA antigen for VDRMCKPTWMCEGF (tested as crude phage supernatant) [Phage-2926]
result: 0.12

query: Read off the recorded Phage binding ELISA signal, Anti-PSMA Fab with PSMA antigen for VEQMCKPEWMCKGF (tested as crude phage supernatant) [Phage-2931]
result: 0.109

query: Read off the recorded Phage binding ELISA signal, Anti-PSMA Fab with PSMA antigen for VGKMCVPEWMCHGF (tested as crude phage supernatant) [Phage-2924]
result: 0.082

query: Read off the recorded Phage binding ELISA signal, Anti-PSMA Fab with PSMA antigen for ISHMCKPVWMCSGL (tested as crude phage supernatant) [Phage-2921]
result: 0.125
